Biological target: ActRIIA and ActRIIB (on TGFB/SMAD SBE Reporter HEK293 cells) (human)
Sequence (chain, as listed by the source, chain 1 of 2): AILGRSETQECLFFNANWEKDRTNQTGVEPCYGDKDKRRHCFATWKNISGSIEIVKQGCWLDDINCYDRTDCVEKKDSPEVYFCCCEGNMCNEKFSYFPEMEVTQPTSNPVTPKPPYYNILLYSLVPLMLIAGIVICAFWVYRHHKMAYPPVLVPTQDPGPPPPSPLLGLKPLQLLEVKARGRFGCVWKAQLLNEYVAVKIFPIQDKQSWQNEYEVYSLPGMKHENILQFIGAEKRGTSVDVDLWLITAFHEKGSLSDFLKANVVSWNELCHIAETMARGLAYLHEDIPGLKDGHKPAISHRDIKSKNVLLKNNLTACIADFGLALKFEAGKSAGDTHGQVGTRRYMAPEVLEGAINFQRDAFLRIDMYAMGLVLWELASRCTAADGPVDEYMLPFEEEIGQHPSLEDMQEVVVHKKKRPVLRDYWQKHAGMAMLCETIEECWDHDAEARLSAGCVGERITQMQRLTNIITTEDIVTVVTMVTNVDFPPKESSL
Sequence (chain, as listed by the source, chain 2 of 2): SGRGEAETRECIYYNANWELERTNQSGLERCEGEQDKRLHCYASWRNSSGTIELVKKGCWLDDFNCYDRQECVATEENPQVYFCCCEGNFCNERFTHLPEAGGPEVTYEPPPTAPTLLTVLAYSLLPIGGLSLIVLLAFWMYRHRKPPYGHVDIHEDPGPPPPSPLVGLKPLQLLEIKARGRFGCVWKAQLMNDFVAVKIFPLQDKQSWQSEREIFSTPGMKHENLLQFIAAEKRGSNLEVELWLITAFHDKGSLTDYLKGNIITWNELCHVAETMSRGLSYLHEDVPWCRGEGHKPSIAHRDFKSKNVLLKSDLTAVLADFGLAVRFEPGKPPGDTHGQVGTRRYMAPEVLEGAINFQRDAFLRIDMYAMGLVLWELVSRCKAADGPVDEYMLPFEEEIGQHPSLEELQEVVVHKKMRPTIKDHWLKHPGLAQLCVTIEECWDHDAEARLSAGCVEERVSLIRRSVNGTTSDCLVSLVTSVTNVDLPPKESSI
Assay: cell-based or functional assay
Exam item: assign criterion met to entries whose IC50, Myostatin SMAD RGA is below 0.6 nM and criterion not met to entries at or above 0.6 nM. Note that a value of exactly 0.6 nM receives criterion not met.

# strict comparison: is reported IC50, Myostatin SMAD RGA < 0.6 nM? input = Antibody Seela (antibody, V domains shown) VH: QVQLVQSGAEVKKPGSSVKVSCKASGYKFTSSYINWVRQAPGQGLEWMGTINAVSGSTSYAQKFQGRVTITADTSTSTAYMELSSLRSEDTAVYYCARGGWFDYWGQGTLVTVSS VL: QSALTQPRSVSGSPGQSVTISCTGTSSDVGSKNYVNWYQQHPGKAPKHMIYGVSKRESGVPDRFSGSKSGNTASLTISGLQAEDEADYYCGTFAGGKYYGVFGGGTKLTVL
criterion met

# strict comparison: is reported IC50, Myostatin SMAD RGA < 0.6 nM? input = Bimagrumab (antibody, V domains shown) VH: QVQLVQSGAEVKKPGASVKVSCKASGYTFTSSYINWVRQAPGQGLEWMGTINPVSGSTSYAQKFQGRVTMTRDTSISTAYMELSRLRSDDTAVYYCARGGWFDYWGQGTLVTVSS VL: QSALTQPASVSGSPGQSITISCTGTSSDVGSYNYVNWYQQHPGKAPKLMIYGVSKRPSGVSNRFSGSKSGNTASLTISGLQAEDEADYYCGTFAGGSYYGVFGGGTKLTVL
criterion met

# strict comparison: is reported IC50, Myostatin SMAD RGA < 0.6 nM? input = Antibody Hegemark (antibody, V domains shown) VH: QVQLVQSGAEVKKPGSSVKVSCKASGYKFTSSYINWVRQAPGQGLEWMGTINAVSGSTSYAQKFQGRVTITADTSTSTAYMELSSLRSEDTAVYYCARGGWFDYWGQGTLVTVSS VL: QSALTQPRSVSGSPGQSVTISCTGTSSDVGSKNYVNWYQQHPGKAPKLMIYGVSKRHSGVPDRFSGSKSGNTASLTISGLQAEDEADYYCGTFAGGKYYGVFGGGTKLTVL
criterion met

# strict comparison: is reported IC50, Myostatin SMAD RGA < 0.6 nM? input = Antibody Metzelsupp (antibody, V domains shown) VH: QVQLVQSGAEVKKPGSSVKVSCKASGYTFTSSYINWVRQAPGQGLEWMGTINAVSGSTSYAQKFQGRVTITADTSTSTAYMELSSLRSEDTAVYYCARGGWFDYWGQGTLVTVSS VL: QSALTQPRSVSGSPGQSVTISCTGTSSDVGSFNYVNWYQQHPGKAPKLMIRGVSKRESGVPDRFSGSKSGNTASLTISGLQAEDEADYYCGTFAGGAYYGVFGGGTKLTVL
criterion not met

# strict comparison: is reported IC50, Myostatin SMAD RGA < 0.6 nM? input = Antibody Zibebe (antibody, V domains shown) VH: QVQLVQSGAEVKKPGSSVKVSCKASGYKFTSSYINWVRQAPGQGLEWMGTINAVSGSTSYAQKFQGRVTITADESTSTAYMELSSLRSEDTAVYYCARGGWFDYWGQGTLVTVSS VL: QSALTQPRSVSGSPGQSVTISCTGTSSDVGSYNYVNWYQQHPGKAPKLMIYGVSKRESGVPDRFSGSKSGNTASLTISGLQAEDEADYYCGTFAGGKYYGVFGGGTKLTVL
criterion not met

# strict comparison: is reported IC50, Myostatin SMAD RGA < 0.6 nM? input = Antibody Wiebela (antibody, V domains shown) VH: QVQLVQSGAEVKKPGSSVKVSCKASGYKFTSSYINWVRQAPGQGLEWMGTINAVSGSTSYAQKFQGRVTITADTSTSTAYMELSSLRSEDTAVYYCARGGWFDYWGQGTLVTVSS VL: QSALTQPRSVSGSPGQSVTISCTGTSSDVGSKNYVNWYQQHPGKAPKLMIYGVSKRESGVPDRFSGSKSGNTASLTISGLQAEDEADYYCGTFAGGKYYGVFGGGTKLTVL
criterion met

# strict comparison: is reported IC50, Myostatin SMAD RGA < 0.6 nM? input = Antibody Schnitzbrot (antibody, V domains shown) VH: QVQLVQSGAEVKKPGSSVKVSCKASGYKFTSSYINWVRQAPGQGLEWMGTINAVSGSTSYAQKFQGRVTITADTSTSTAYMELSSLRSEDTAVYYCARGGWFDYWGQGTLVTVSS VL: QSALTQPRSVSGSPGQSVTISCTGTSSDVGSYNYVNWYQQHPGKAPKLMIYGVSKRDSGVPDRFSGSKSGNTASLTISGLQAEDEADYYCGTFAGGKYYGVFGGGTKLTVL
criterion not met

# strict comparison: is reported IC50, Myostatin SMAD RGA < 0.6 nM? input = Antibody Rauchfloisch (antibody, V domains shown) VH: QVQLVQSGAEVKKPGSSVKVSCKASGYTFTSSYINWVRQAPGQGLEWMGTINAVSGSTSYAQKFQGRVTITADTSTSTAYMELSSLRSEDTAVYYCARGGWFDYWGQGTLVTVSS VL: QSALTQPRSVSGSPGQSVTISCTGTSSDVGSRNYVNWYQQHPGKAPKLMIYGVSKRESGVPDRFSGSKSGNTASLTISGLQAEDEADYYCGTFAGGDYYGVFGGGTKLTVL
criterion not met
